tested on: Klebsiella pneumoniae; test: Antimicrobial activity against carbapenemases KPC-producing Klebsiella pneumoniae VA-361 infected in sc dosed CD-1 mouse in presence of 1 ug/ml NXL104 beta-lactamase inhibitor; format: functional
Items are presented alongside their recorded MIC.
Measured endpoint: MIC (µg/mL)

>  <Molecule>
CO/N=C(\C(=O)N[C@@H]1C(=O)N2C(C(=O)O)=C(COC(C)=O)CS[C@H]12)c1csc(N)n1 [CEFOTAXIME]

>  <Measurement target>
Klebsiella pneumoniae

>  <Observed value>
0.5

$$$$
>  <Molecule>
CCN1CCN(C(=O)N[C@@H](C(=O)N[C@@H]2C(=O)N3[C@@H]2SC(C)(C)[C@@H]3C(=O)O)c2ccccc2)C(=O)C1=O [PIPERACILLIN]

>  <Measurement target>
Klebsiella pneumoniae

>  <Observed value>
32

$$$$
>  <Molecule>
CC(C)(O/N=C(\C(=O)N[C@@H]1C(=O)N2C(C(=O)[O-])=C(C[n+]3ccccc3)CS[C@H]12)c1csc(N)n1)C(=O)O [CEFTAZIDIME]

>  <Measurement target>
Klebsiella pneumoniae

>  <Observed value>
8

$$$$
>  <Molecule>
CO/N=C(\C(=O)N[C@@H]1C(=O)N2C(C(=O)[O-])=C(C[N+]3(C)CCCC3)CS[C@H]12)c1csc(N)n1 [CEFEPIME]

>  <Measurement target>
Klebsiella pneumoniae

>  <Observed value>
0.5

$$$$
